Hello, the source for this data is patent US8563542B2, in case you need it.

# IC50 values compiled below
- Tested System: PLK1 (Homo sapiens)
- Sequence (P53350 whole entry): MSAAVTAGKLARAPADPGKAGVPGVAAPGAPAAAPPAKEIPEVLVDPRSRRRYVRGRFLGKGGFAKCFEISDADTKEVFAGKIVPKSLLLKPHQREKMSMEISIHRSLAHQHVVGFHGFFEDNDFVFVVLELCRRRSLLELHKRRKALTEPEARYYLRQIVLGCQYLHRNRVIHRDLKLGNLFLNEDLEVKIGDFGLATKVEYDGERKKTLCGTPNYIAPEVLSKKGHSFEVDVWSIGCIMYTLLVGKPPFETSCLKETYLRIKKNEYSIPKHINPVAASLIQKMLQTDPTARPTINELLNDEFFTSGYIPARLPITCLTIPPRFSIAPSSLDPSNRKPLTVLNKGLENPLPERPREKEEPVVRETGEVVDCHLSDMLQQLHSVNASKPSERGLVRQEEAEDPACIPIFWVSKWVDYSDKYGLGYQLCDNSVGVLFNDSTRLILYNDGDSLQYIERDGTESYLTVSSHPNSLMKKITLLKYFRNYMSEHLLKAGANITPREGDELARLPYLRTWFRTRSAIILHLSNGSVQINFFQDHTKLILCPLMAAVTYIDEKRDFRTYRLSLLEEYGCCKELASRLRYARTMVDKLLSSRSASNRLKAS
- Measurement Notes: PLK1 protein kinase assay (CDC25C phosphorylation, [γ-32P]-ATP)
- Assay type: biochemical
- Test Settings: Table 3; read-out: PLK1 IC50

Here are 5 molecules together with their reported answers.
{"Molecule": "COc1cc(C(=O)N[C@H]2CC[C@H](N3CCN(Cc4ccccc4)CC3)CC2)ccc1Nc1ncc2c(n1)N(C1CCCC1)CC1(CC1)C(=O)N2C", "Readout Name": "IC50", "Result": "< 100 nM"}
{"Molecule": "COc1cc(C(=O)NN2CCN(C)CC2)ccc1Nc1ncc2c(n1)N(C1CCCC1)CC1(CCC1)C(=O)N2C", "Readout Name": "IC50", "Result": "< 100 nM"}
{"Molecule": "COc1cc(C(=O)NC2CCC(N3CCCN(Cc4ccccc4)CC3)CC2)ccc1Nc1ncc2c(n1)N(C1CCCC1)CC1(CC1)C(=O)N2C (stereo not drawn)", "Readout Name": "IC50", "Result": "100 to 1000 nM"}
{"Molecule": "COc1cc(C(=O)N[C@H]2CC[C@H](N3CCOCC3)CC2)ccc1Nc1ncc2c(n1)N(C1CCCC1)CC(C)(C)C(=O)N2C", "Readout Name": "IC50", "Result": "< 100 nM"}
{"Molecule": "COc1cc(C(=O)N[C@H]2CC[C@@H](N3CCOCC3)CC2)ccc1Nc1ncc2c(n1)N(C1CCCC1)CC(C)(C)C(=O)N2C", "Readout Name": "IC50", "Result": "100 to 1000 nM"}

Here's the next entry for you.
IN: Can you share its IC50? I mean this molecule: COc1cc(C(=O)NC2CN3CCC2CC3)ccc1Nc1ncc2c(n1)N(C1CCCC1)CC(C)(C)C(=O)N2C (racemic)
OUT: < 100 nM

====

# IC50 values compiled below
- Tested System: UniProtKB P53350
- Measurement Notes: PLK1 protein kinase assay (CDC25C phosphorylation, [γ-32P]-ATP)
- Assay type: biochemical
- Test Settings: Table 2, PLK1 IC50; class symbols; read-out: PLK1 IC50

IN: Can you share its IC50? I mean this compound: COc1ccc(C(=O)NCCCN(C)C)cc1Nc1ncc2c(n1)N(C1CCCC1)CCC(=O)N2C
OUT: < 1 µM

IN: Can you share its IC50? I mean this compound: CN1C(=O)CCN(C2CCCC2)c2nc(Nc3cccc(S(=O)(=O)N4CCNCC4)c3)ncc21
OUT: < 10 µM

IN: Can you share its IC50? I mean this compound: COc1cc(C(=O)NC2CC(C)(C)N(C)C(C)(C)C2)ccc1Nc1ncc2c(n1)N(C1CCCC1)CCC(=O)N2C
OUT: < 0.1 µM

IN: Can you share its IC50? I mean this compound: Cc1cccc(Nc2ncc3c(n2)N(C2CCCC2)CCC(=O)N3C)c1
OUT: < 10 µM

IN: Can you share its IC50? I mean this compound: CC(=O)Nc1ccc(Nc2ncc3c(n2)N(C2CCCC2)CCC(=O)N3C)cc1C
OUT: < 10 µM

IN: Can you share its IC50? I mean this compound: COc1cccc(N2CCC(=O)N(C)c3cnc(Nc4ccc(C(=O)O)cc4)nc32)c1
OUT: < 10 µM

IN: Can you share its IC50? I mean this compound: COc1cc(C(=O)NN2CCN(C)CC2)ccc1Nc1ncc2c(n1)N(C1CCCC1)CC(C)(C)C(=O)N2C
OUT: < 0.1 µM

IN: Can you share its IC50? I mean this compound: COc1cc(C(=O)NC2CCN(C)CC2)ccc1Nc1ncc2c(n1)N(CC(C)C)CCC(=O)N2C
OUT: < 1 µM
